Form field: growth inhibition (one value per entry).
- TEST_NAME: NCI Yeast Anticancer Drug Screen. Data for the cln2 rad14 strain (AID 165);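 also: 0% = growth equal to vehicle treated cultures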
- MEASUREMENT_SETUP: S. cerevisiae cln2 rad14 strain, at 50.0 µM, active compounds read high
About 79,000 compounds went through this panel and 15% of them were active in at least one assay; those are over-represented in the sample as a whole.
MEASURED_QUANTITY: growth inhibition (%)

• CC(=O)N[C@H](CO)[C@H](O)c1ccc([N+](=O)[O-])cc1 = -47.6
• CN1C(CC(=O)c2ccccc2)CCCC1CC(O)c1ccccc1 (centres undefined) = 40.4
• Cc1cc(N(CCC#N)S(=O)(=O)c2ccccc2)ccc1/C=C1\N=C(c2ccc(Cl)cc2)OC1=O = -18.6
• Cc1cc2c(c(C)c1O)C(C)(C)CN2C(=O)C(C)(C)C = -8.85
• CC(=O)OC1CC2(C)OC(Cc3ccccc32)O1 (centres undefined) = 4.4
• COc1ccc(/C=N/N2CCN(/N=C/c3ccc(OC)c(O)c3)CC2)cc1O = 28.6
• CC[n+]1ccc2cc(OC)c(OC)cc2c1Cc1ccc(OC)c(OC)c1 = -34
• C/C(=N/N(C=O)C[n+]1ccccc1)C(CN(CC(C)C)CC(C)C)C(=O)Nc1ccc(C)cc1C (centres undefined) = 31.5
• CCOC(=O)C/C(C)=N\NC(N)=O = 18.2
• CCCSc1nc2c(=O)n(C)c(=O)[nH]c2n1C = -36.3
• CC(C)CC(=O)OC1=C(O)C(=O)C(OC(=O)CC(C)C)=C(O)C1=O = -62.4
• N=c1c2ccccc2c2ccccc2n1O = -11.4
• COC(=O)C1C(C)(C(=O)OC)N=NC1(c1ccccc1)c1ccccc1 (centres undefined) = 16
• C=C(Cl)/C(=C\Cl)CCC(Cl)C(C)C (centres undefined) = 29.1
• Cc1cc(S(=O)(=O)Nc2nc(N)nc(N3CCOCC3)n2)c(SCC(=O)O)cc1Cl = 12.9
• CC(C)(C)NC(=O)CCC(=O)O = -18.2
• O=C(Nc1ccccc1)Sc1ccc(Cl)cc1 = -20.1
• CC1=C(C)C(=O)C=CC1=O = -1
• c1ccc(CCC2OCC(c3ccccc3)O2)cc1 (centres undefined) = -35.9
• COC(=O)c1cc(C(=O)OC)c(CC(=O)C(=O)Nc2c(C(C)C)cccc2C(C)C)nc1CC(=O)C(=O)Nc1c(C(C)C)cccc1C(C)C = 1.75
• CC(=O)CC(SCCSCCSC(CC(C)=O)c1ccccc1)c1ccccc1 (centres undefined) = 17.1
• CCCCN=C(N)N=C(N)N = -7.45
• Nc1ncnc2c1ncn2C1C=CC(COS(N)(=O)=O)C1 (centres undefined) = 10.8
• N=C(N)S/C=C/C(=O)O = -4.65
